Parameter: pIC50. Scope: all listed entries.
target: p-AXL (Homo sapiens, UniProt P30530); experiment: Axl phosphorylation inhibition ELISA in HEK293T cells transfected with NanoLuc-tagged AXL; details: 1 h compound incubation, media (OptiMEM)
Sequence (P30530 26-894): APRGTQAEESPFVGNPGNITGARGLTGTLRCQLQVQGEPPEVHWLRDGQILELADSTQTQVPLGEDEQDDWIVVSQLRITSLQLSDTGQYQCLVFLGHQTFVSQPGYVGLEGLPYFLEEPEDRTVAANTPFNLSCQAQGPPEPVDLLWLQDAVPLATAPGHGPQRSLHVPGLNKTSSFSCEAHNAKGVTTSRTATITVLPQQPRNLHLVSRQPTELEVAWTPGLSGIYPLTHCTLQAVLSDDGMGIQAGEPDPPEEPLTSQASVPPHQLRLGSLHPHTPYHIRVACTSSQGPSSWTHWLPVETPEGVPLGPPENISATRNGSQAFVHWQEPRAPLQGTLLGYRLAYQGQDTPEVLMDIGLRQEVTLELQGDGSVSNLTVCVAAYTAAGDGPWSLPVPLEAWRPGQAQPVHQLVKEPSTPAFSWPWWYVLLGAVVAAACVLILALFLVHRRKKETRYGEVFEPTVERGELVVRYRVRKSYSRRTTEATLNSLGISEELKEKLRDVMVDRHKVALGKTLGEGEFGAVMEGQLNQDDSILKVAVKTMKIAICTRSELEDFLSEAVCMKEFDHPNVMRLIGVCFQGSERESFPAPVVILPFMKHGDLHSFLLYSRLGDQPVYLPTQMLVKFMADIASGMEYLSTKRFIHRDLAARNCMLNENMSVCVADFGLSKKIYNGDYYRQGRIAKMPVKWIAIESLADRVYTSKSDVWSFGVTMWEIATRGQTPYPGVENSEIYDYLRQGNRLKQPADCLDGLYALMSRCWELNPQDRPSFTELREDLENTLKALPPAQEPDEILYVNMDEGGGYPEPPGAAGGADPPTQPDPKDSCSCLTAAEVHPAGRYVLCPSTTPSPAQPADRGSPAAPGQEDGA
pIC50: −log10 of the molar value.

INSERT INTO measurements (chem_smiles, assay_endpoint, result) VALUES
  ('Cc1cccnc1-c1ccc(-c2n[nH]c3ncc(-c4ccc5c(c4)CC[C@@](C)(N4CCC[C@H]4C)CC5)cc23)cc1', 'pIC50', '> 7.00');

# pIC50 of "O=C1CCCCN1c1cccnc1-c1ccc(-c2n[nH]c3ncc(-c4ccc5c(c4)CC[C@@H](N4C6COCC4C6)CC5)cc23)cc1" = > 7.00

pIC50 measured on "O=C1CCCN1c1cccnc1-c1ccc(-c2c[nH]c3ncc(-c4ccc5c(c4)CC[C@@H](N4C6COCC4C6)CC5)cc23)cc1" = > 7.00

====

target: p-AXL (Homo sapiens); assay: Axl phosphorylation inhibition ELISA in HEK293T cells transfected with NanoLuc-tagged AXL; conditions: 1 h compound incubation, media (OptiMEM)
pIC50: −log10 of the molar value.
ASSAY_ENDPOINT: pIC50

INSERT INTO results (compound, assay_endpoint, result) VALUES
  ('Cc1cccnc1-n1cc(-c2c[nH]c3ncc(-c4ccc5c(c4)CC[C@@H](N4C6COCC4C6)CC5)cc23)cn1', 'pIC50', '> 7.00'),
  ('CN(C)C(=O)c1ccccc1-c1ccc(-c2c[nH]c3ncc(-c4ccc5c(c4)CC[C@@H](N4C6COCC4C6)CC5)cc23)cc1', 'pIC50', '> 7.00'),
  ('Cc1cccnc1-c1ccc(-c2n[nH]c3ncc(-c4ccc5c(c4)CCC(N4CCCC4)C5)cc23)cc1 (stereo not shown)', 'pIC50', '6.00 to 7.00'),
  ('COCCOc1cccnc1-c1ccc(-c2n[nH]c3ncc(-c4ccc5c(c4)CC[C@@H](N4C6COCC4C6)CC5)cc23)cc1', 'pIC50', '> 7.00'),
  ('Cc1ccc(-c2ccc(-c3n[nH]c4ncc(-c5ccc6c(c5)CC[C@@H](N5C7COCC5C7)CC6)cc34)cc2)nc1', 'pIC50', '6.00 to 7.00');

// pIC50 lookup, compound = "Cc1cnc(C)c(-c2ccc(-c3c[nH]c4ncc(-c5ccc6c(c5)CC[C@@](C)(N5CCC[C@H]5C)CC6)cc34)cc2)n1" , result: > 7.00

So for "FC(F)(F)c1cccnc1-c1ccc(-c2n[nH]c3ncc(-c4ccc5c(c4)CC[C@@H](N4C6COCC4C6)CC5)cc23)cc1" , the logged pIC50 turned out to be 6.00 to 7.00

====

biological target: recombinant human TYRO3 (Homo sapiens); assay: Biochemical potency, HTRF KinEASE-TK kinase assay; conditions: 1 nM TYRO3, 700 μM ATP
Sequence (Q06418 41-890): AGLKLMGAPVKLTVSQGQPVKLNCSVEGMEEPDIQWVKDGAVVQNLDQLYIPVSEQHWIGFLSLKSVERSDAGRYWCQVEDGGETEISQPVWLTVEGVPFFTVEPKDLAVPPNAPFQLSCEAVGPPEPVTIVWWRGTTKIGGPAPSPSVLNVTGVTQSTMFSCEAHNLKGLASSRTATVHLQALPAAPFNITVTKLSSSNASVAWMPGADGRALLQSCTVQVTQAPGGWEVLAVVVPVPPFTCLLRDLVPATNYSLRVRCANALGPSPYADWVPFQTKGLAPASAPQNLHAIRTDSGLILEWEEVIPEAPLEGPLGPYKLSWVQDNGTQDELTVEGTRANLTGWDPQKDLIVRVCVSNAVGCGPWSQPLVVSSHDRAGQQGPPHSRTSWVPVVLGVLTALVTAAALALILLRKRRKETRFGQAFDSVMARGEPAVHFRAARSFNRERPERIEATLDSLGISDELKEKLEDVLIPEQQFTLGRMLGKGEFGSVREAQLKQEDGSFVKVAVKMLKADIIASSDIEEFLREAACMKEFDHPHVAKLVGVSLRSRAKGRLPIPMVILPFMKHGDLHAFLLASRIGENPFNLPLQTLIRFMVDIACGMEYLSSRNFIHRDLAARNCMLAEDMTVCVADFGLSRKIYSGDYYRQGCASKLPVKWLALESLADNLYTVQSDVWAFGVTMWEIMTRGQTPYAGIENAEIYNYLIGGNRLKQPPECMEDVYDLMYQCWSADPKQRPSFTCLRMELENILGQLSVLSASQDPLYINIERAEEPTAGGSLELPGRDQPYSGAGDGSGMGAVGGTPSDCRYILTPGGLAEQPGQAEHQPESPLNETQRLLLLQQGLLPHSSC
pIC50: −log10 of the molar value.
ASSAY_ENDPOINT: pIC50

INSERT INTO results (compound, target, result) VALUES
  ('Cc1ccccc1-c1ccc(-c2c[nH]c3ncc(-c4ccc5c(c4)CC[C@@H](N4C6COCC4C6)CC5)cc23)nc1 [Example 97]', 'recombinant human TYRO3 (Homo sapiens)', '< 6.00'),
  ('O=C1CCCN1c1cccnc1-c1ccc(-c2n[nH]c3ncc(-c4ccc5c(c4)CC[C@@H](N4C6COCC4C6)CC5)cc23)cc1 [Example 177]', 'recombinant human TYRO3 (Homo sapiens)', '6.00 to 7.00'),
  ('Cc1cccnc1-c1ccc(-c2n[nH]c3ncc(-c4ccc5c(c4)CC[C@@H](N4C6COCC4C6)CC5)cc23)nc1 [Example 26]', 'recombinant human TYRO3 (Homo sapiens)', '6.00 to 7.00'),
  ('CC(C)(O)c1cccnc1-c1ccc(-c2c[nH]c3ncc(-c4ccc5c(c4)CC[C@@H](N4C6COCC4C6)CC5)cc23)cc1 [Example 95]', 'recombinant human TYRO3 (Homo sapiens)', '> 7.00'),
  ('COCCOc1cccnc1-c1ccc(-c2n[nH]c3ncc(-c4ccc5c(c4)CC[C@@H](N4C6COCC4C6)CC5)cc23)cc1 [Example 180]', 'recombinant human TYRO3 (Homo sapiens)', '> 7.00');

Let's switch to this compound now.
pIC50 value, target or system recombinant human TYRO3 (Homo sapiens), for c1ccc(-n2cc(-c3n[nH]c4ncc(-c5ccc6c(c5)CC[C@@H](N5C7COCC5C7)CC6)cc34)cn2)nc1 [Example 168] : 6.00 to 7.00
